Origin of the recorded values: patent US20240239813A1

Tested on: MKN-1
Assay text: Cell proliferation assay (CellTiterGlo), MKN-1
Assay type: cell-based
Condition label: Homo sapiens, MKN-1, 72 hours
Quantity kind: IC50

• CCc1c(F)ccc2cc(O)cc(-c3ncc4c(N5C[C@H](O)C[C@H]5CO)nc(OC[C@@]56CCCN5C[C@H](F)C6)nc4c3F)c12 = > 10 µM
• CCc1c(F)ccc2cc(O)cc(-c3ncc4c(N5CCC[C@H]5C(=O)OC)nc(OC[C@@]56CCCN5C[C@H](F)C6)nc4c3F)c12 = > 10 µM
• CCc1c(F)ccc2cc(O)cc(-c3ncc4c(N5CCC[C@H]5C(N)=O)nc(OC[C@@]56CCCN5C[C@H](F)C6)nc4c3F)c12 = > 10 µM
